# Test system: Shionogi mouse mammary carcinoma cells
# assay_comment: Antiandrogenic activity: inhibition of DHT-induced proliferation of Shionogi cells
# Assay type: cell-based
# measurement_parameters: Table 4′; DHT-induced proliferation, E^−7
I'd appreciate it if you could supply Antiandrogenic Activity Shionogi, DHT E^−7 values for the items below.
One number for each entry, in %.

The following compounds have reported results that may help.
[in] // fetch Antiandrogenic Activity Shionogi, DHT E^−7 given entry CCS(=O)(=O)Oc1ccc2c(c1)CCC1C2CCC2(C)C1CCC21CCC(C)(C)C(=O)O1 (centres unmarked) [EM-1364-CS]
[out] −11

[in] Provide one value: measured Antiandrogenic Activity Shionogi, DHT E^−7 of COCCOc1ccc2c(c1)CCC1C2CCC2(C)C1CCC21CCC(C)(C)C(=O)O1 (centres unmarked) [EM-1368-CS]
[out] 0

[in] Check the records and state Antiandrogenic Activity Shionogi, DHT E^−7 for CSCCOc1ccc2c(c1)CCC1C2CCC2(C)C1CCC21CCCC(=O)O1 (centres unmarked) [CS-242]
[out] 9

For every listed record, write down its Antiandrogenic Activity Shionogi, DHT E^−7.
1. CC1(C)CCC2(CCC3C4CCc5c(cc(Cl)c(O)c5Cl)C4CCC32C)OC1=O (centres unmarked) [EM-1391-CS]
2. CC1(C)CC[C@@]2(CC[C@H]3[C@@H]4CCc5c(cc(Br)c(O)c5Br)[C@H]4CC[C@@]32C)OC1=O [EM-1382-CS]

[out]
1: 0; 2: 0

Batch of 3 compounds: report Antiandrogenic Activity Shionogi, DHT E^−7 for each.
1. COCCOc1cc2c(cc1C(N)=O)C1CC[C@@]3(C)C(CC[C@@]34CCC(C)(C)C(=O)O4)C1CC2 (some centres unmarked) [EM-1424]
2. CC1(C)CCC2(CCC3C4CCc5cc(O)c(C#N)cc5C4CCC32C)OC1=O (centres unmarked) [EM-01645]
3. CC12CCC3c4ccc(F)cc4CCC3C1CCC21CCCC(=O)O1 (centres unmarked) [EM-1170-CS]

[out]
["−22", "−6", 15]

* * *

# target_of_assay: human type 5 17β-hydroxysteroid dehydrogenase (Homo sapiens)
# Construct: screen again a human placental λgt11 cDNA to get the full length cDNA clone; expressed in transfected cells; host or cells: human embryonal kidney 293 cells (pCMV / pCMV-neo vector)
# Sequence (P42330 1-323): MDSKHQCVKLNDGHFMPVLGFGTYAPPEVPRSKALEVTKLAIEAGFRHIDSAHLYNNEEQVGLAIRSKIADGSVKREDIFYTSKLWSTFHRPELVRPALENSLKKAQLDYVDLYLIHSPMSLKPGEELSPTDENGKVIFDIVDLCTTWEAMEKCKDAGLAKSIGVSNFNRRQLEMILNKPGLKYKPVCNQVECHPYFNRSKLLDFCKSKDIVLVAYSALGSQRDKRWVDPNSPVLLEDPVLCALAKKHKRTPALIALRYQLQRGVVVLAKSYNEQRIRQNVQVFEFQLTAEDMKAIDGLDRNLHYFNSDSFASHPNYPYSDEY
# assay_comment: Inhibition of human type 5 17β-HSD activity in transfected 293 cells
# Format: cell-based
# measurement_parameters: Table 4′; read-out: Inhibition Type V 17β-HSD IC50
pIC50: −log10 of the molar value.
pIC50 vs 7: at or above is label 1, below is label 0.

[in] Say whether CC1(C)CCC2(CCC3C4CCc5cc(O)c(C(N)=O)cc5C4CCC32C)OC1=O (centres unmarked) shows pIC50 of 7 or more.
[out] label 1

[in] Does the reported pIC50 for COc1c(Br)cc2c(c1Br)CCC1C2CCC2(C)C1CCC21CCC(C)(C)C(=O)O1 (centres unmarked) fall at or above the 7 mark?
[out] label 1

[in] Assess whether reported pIC50 for COCCOc1cc2c(cc1C(N)=O)C1CC[C@@]3(C)C(CC[C@@]34CCC(C)(C)C(=O)O4)C1CC2 (some centres unmarked) sits at 7 or higher.
[out] label 1

[in] Could you please find out whether CN(C)C(=O)c1ccc2c(c1)CCC1C2CCC2(C)C1CCC21CCC(C)(C)C(=O)O1 (centres unmarked) has pIC50 that meets 7 or exceeds it?
[out] label 1

[in] Entry CC1CC(=O)OC2(CCC3C4CCc5cc(O)ccc5C4CCC32C)C1 (centres unmarked) : is its pIC50 no less than 7?
[out] label 1

Alright, here's another compound for you.
[in] Hi team, for COc1cc2c(cc1C(F)(F)F)C1CCC3(C)C(CCC34CCC(C)(C)C(=O)O4)C1CC2 (centres unmarked) , is the recorded pIC50 at or above 7?
[out] label 0
